protein stability index values for the variants below.
B1: MNAT1 (parent)
chain: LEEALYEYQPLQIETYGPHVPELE

variants of: B1; experiment: protein stability index of a GFP-peptide fusion (GPS, HEK-293T) (PSI 1-6); higher = more stable; details: c terminus: a fixed tail appended;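 also: lentivirally expressed fusions sorted by FACS into six bins by GFP to DsRed ratio, PSI derived from sequencing read proportions per bin multiplied by bin number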
measured parameter: protein stability index

- LWEALYEYQPLQIETYGPHVPELE: 2.34
- LEDALYEYQPLQIETYGPHVPELE: 3.19
- LEFALYEYQPLQIETYGPHVPELE: 3.39
- LEEALYYYQPLQIETYGPHVPELE: 1.98
- LEEALYEYQPLQIEQYGPHVPELE: 4.09
- LEEALYEYQPLQDETYGPHVPELE: 5.07
- LEWALYEYQPLQIETYGPHVPELE: 1.45
- LEEALYEYQPLQIETYGPHVPRLE: 2.35
- LEEALYEYQPLQIETYGIHVPELE: 2.04
- LEEALYEYQPLQINTYGPHVPELE: 2.61
- LEEALYEYQPLQIERYGPHVPELE: 4.41
- LAEALYEYQPLQIETYGPHVPELE: 2.26
- LEEALYEYQPLQIETYGPFVPELE: 2.11
- LEEALYEAQPLQIETYGPHVPELE: 5.3
- LEEAAYEYQPLQIETYGPHVPELE: 4.97
